pEC50: recorded values
biological target: human CB1 receptors (Homo sapiens, UniProt P21554); construct: expressed in transfected cells; host or cells: CHO cells; assay: functional cAMP assay, human CB1; type: cell-based; details: CHO cells expressing human CB1, cAMP; read-out: human CB1 EC50
Sequence (P21554 whole entry): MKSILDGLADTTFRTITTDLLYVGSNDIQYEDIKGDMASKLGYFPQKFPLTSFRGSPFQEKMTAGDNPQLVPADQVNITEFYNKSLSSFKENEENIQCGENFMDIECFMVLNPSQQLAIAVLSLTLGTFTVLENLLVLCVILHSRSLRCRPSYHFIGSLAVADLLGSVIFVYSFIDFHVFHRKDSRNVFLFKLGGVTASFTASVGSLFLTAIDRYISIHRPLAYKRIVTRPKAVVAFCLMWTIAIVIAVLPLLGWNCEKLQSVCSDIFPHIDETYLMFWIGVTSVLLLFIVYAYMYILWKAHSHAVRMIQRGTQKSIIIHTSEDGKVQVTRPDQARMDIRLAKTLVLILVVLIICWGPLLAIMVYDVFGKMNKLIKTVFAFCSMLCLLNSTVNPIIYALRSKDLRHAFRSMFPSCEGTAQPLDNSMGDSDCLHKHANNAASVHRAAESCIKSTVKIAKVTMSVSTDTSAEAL
pEC50: −log10 of the molar value.

Per the record, Cn1nccc1C1CCCN1c1nc(C(C)(C)C)nc2c1nnn2Cc1ccccc1Cl (stereo not drawn) [Example 201] has pEC50 of < 5.00

More entries:
Per the record, Cc1cc(Cn2nnc3c(N4CC[C@H](O)C4)nc(C(C)(C)C)nc32)n(C)n1 [Example 155] has pEC50 of < 5.00

Per the record, CC(C)(C)c1nc(N2CC[C@H](O)C2)c2nnn(Cc3ncccc3Cl)c2n1 [Example 138] has pEC50 of < 5.00

###

target: human CB2 receptors (Homo sapiens, UniProt P34972); construct: expressed in transfected cells; host or cells: CHO cells; experiment: functional cAMP assay, human CB2; assay type: cell-based; conditions: CHO cells expressing human CB2, cAMP; read-out: human CB2 EC50
Sequence (P34972 whole entry): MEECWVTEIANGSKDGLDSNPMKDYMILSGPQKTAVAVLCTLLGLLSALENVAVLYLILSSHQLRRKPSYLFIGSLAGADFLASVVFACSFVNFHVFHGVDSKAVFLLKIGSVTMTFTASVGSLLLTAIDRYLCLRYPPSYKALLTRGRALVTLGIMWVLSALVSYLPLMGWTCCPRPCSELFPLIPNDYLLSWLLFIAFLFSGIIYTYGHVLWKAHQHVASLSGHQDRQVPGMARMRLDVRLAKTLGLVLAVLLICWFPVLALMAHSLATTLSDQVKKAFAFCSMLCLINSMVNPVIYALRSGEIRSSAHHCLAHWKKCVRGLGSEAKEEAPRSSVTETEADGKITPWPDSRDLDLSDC
property-label: EC50

Field: example entries. Status: answers known.
Observed EC50, human CB2 receptors (Homo sapiens, UniProt P34972), CC(C)(C)c1nc(N2CCC(F)(F)C2)c2nnn(CCO)c2n1 [Example 63] : 18.2 nM

Observed EC50, human CB2 receptors (Homo sapiens, UniProt P34972), CC(C)(C)c1nc(N2CCC(F)(F)C2)c2nnn(Cc3ccccc3OC(F)(F)F)c2n1 [Example 82] : 0.2 nM

Observed EC50, human CB2 receptors (Homo sapiens, UniProt P34972), CC(C)(C)c1nc(N2CC[C@@](C)(O)C2)c2nnn(Cc3ccccc3C(F)(F)F)c2n1 [Example 222-b] : 5.2 nM

Now let's try a different one.
Observed EC50, human CB2 receptors (Homo sapiens, UniProt P34972), CC(C)(C)c1nc(N2CC3(COC3)C2)c2nnn(Cc3ccccc3Cl)c2n1 [Example 10] : 2.4 nM

###

target: human CB1 receptors (Homo sapiens); construct: expressed in transfected cells; host or cells: CHO cells; test: functional cAMP assay, human CB1; assay type: cell-based; details: CHO cells expressing human CB1, cAMP; read-out: human CB1 EC50
pEC50: −log10 of the molar value.
property-label: pEC50

Field: example entries. Status: answers known.
Per the record, `CC(C)(C)c1nc(N2CCC(F)(F)C2)c2nnn(Cc3ncccc3Cl)c2n1` has pEC50 of 7.01

Per the record, `CC(C)(C)c1nc(N2CCC(F)(F)C2)c2nnn(Cc3cccc(C(F)(F)F)c3Cl)c2n1` has pEC50 of 6.74

Per the record, `Cc1nonc1Cn1nnc2c(N3CC[C@H](O)C3)nc(C(C)(C)C)nc21` has pEC50 of < 5.00

Per the record, `CC(C)(C)c1nc(N2CCC[C@H](O)C2)c2nnn(Cc3ccccc3Cl)c2n1` has pEC50 of 6.12

More entries:
Per the record, `CC(C)(C)c1nc(N2CCC(F)(F)C2)c2nnn(CC3CCCCC3)c2n1` has pEC50 of < 5.00

Per the record, `Cn1nnnc1Cn1nnc2c(N3CC4(COC4)C3)nc(C(C)(C)C)nc21` has pEC50 of < 5.00

Per the record, `Cc1cc(Cn2nnc3c(N4CCC(F)(F)C4)nc(C(C)(C)C)nc32)n(C)n1` has pEC50 of 6.91

Per the record, `COc1ccc(Cn2nnc3c(N4CCOCC4)nc(C(C)(C)C)nc32)cc1` has pEC50 of < 5.00

Per the record, `CC(C)(C)c1nc(N2CC[C@H](O)[C@@H]2CO)c2nnn(Cc3cccnc3Cl)c2n1` has pEC50 of < 5.00

Per the record, `C[C@H](Oc1nc(C(C)(C)C)nc2c1nnn2Cc1ccccc1Cl)C(F)(F)F` has pEC50 of < 5.00

Per the record, `C[C@@H]1CC[C@@H](C)N1c1nc(C(C)(C)C)nc2c1nnn2Cc1ccccc1Cl` has pEC50 of 6.04

Per the record, `CC(=O)N[C@H]1CCN(c2nc(C(C)(C)C)nc3c2nnn3Cc2ccccc2Cl)C1` has pEC50 of < 5.00

Per the record, Cc1noc(C2CCCN2c2nc(C(C)(C)C)nc3c2nnn3Cc2ccccc2Cl)n1 (stereo not drawn) has pEC50 of < 5.00
